Test system: Cyperus serotinus, Rottb.
Test: Preemergence weed control under flooded paddy conditions, CYPSE (Flatsedge); further: meaning of each grade not given here
Type: in vivo
Details: Rate 0.2500 kg/ha, preemergence, rated three to four weeks after treatment
Quantity Measured: herbicidal effect rating, CYPSE
Would you mind answering with just the numeric figure?

Use the examples below as a reference point.
[[record]]
compound = "Cc1ccc(OC(C)C(=O)NS(=O)(=O)C(C)C)c(-c2nsc3ccc(-n4c(=O)cc(C(F)(F)F)n(C)c4=O)cc23)c1 (stereo not drawn) [Example 568]"
result = 0.0

[[record]]
compound = "CCCS(=O)(=O)NC(=O)C(C)Oc1ccc(C)cc1-c1nsc2ccc(-n3c(=O)cc(C(F)(F)F)n(C)c3=O)cc12 (stereo not drawn) [Example 569]"
result = 0.0


herbicidal effect rating, CYPSE for Cn1c(C(F)(F)F)cc(=O)n(-c2ccc3snc(COCc4ccc(Cl)cc4)c3c2)c1=O [Example 584] is 0.0
